Experiment: Effect of DHMPP with time on plasma and brain levodopa, OMD and dopamine after levodopa administration
Type: in vivo, Male Sprague-Dawley rats
Details: rat, plasma, ip, 250 mg/kg, DHMPP plus levodopa i.p.; after levodopa administration; read-out: time of peak plasma levodopa level with inhibition of COMT (converted)
Outcome Measure: Tmax (h)

- Compound: "N[C@@H](Cc1ccc(O)c(O)c1)C(=O)O [levodopa, 3-(3,4-dihydroxyphenyl)-L-alanine]"
  Reported Value: 1.5

---

Experiment: Effect of DHMPP with time on plasma and brain levodopa, OMD and dopamine after levodopa administration
Assay type: in vivo, Male Sprague-Dawley rats
Details: rat, in vivo, ip, 250 mg/kg, time of peak levodopa in brain

- Compound: "N[C@@H](Cc1ccc(O)c(O)c1)C(=O)O [levodopa, 3-(3,4-dihydroxyphenyl)-L-alanine]"
  Tmax (min): 30

---

Assay: Effect of DHMPP with time on plasma and brain levodopa, OMD and dopamine after levodopa administration
Format: in vivo, Male Sprague-Dawley rats
Settings: rat, plasma, ip, 250 mg/kg, levodopa 250 mg/kg i.p., alone or with DHMPP; after levodopa injection; read-out: time of maximal plasma levels of levodopa (converted)

- Molecule: "N[C@@H](Cc1ccc(O)c(O)c1)C(=O)O [levodopa, 3-(3,4-dihydroxyphenyl)-L-alanine]"
  Tmax [min]: 30
